Each recorded value in this set is attributed to ChEMBL document CHEMBL5291721.

Biological target: Beta-1 adrenergic receptor (Homo sapiens); further: assay procedure not described here
Sequence (P08588 whole entry): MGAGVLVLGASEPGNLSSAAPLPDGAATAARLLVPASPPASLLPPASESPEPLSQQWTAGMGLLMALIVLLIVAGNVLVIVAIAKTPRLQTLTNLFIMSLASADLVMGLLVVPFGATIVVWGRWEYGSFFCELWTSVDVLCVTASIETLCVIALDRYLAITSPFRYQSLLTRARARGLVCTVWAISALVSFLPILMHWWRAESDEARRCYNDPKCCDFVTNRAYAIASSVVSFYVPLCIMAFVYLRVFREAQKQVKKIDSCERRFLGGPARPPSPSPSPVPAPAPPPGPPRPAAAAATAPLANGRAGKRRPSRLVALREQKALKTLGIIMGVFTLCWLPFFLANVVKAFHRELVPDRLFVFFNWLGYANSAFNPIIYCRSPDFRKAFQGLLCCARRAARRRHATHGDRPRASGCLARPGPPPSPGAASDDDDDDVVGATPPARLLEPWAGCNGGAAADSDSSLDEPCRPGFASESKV
Assay type: functional
observed.property: AC50

- compound: "COC(=O)N[C@H](C(=O)N[C@@H](Cc1ccccc1)[C@@H](O)CN(Cc1ccc(-c2ccccn2)cc1)NC(=O)[C@@H](NC(=O)OC)C(C)(C)C)C(C)(C)C"
  AC50: "> 10 µM"
- compound: "Cc1cccc(C)c1OCC(C)N (stereo not given)"
  AC50: "> 30 µM"
- compound: "O=C(O)CCn1c2c(c3ccccc31)C[C@H](NS(=O)(=O)c1ccc(F)cc1)CC2"
  AC50: "> 30 µM"
- compound: "COc1ccccc1OCC(O)COC(N)=O (stereo not given)"
  AC50: "> 10 µM"

Now look at this entry.
State its AC50 on Beta-1 adrenergic receptor (Homo sapiens): CC(Cc1ccccc1)NCCC(c1ccccc1)c1ccccc1 (stereo not given)
6.8 µM

----------
Target: 5-hydroxytryptamine receptor 3A (Homo sapiens); further: assay procedure not described here
Sequence (P46098 whole entry): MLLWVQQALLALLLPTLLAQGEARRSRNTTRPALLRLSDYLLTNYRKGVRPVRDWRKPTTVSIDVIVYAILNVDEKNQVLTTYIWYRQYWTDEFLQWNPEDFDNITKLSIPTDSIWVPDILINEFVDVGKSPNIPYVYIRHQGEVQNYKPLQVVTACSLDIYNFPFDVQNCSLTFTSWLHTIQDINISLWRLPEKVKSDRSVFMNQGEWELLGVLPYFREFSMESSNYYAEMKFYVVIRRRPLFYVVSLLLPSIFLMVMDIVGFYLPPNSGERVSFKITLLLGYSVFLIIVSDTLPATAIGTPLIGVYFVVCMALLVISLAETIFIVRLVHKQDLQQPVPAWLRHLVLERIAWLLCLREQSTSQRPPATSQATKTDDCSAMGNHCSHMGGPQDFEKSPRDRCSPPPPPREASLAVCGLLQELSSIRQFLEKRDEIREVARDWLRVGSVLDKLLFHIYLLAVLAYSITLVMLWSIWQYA
Assay type: functional
This section presents molecules with their documented AC50 values.

Look over these answered cases.
- molecule: "Cc1cccc(C)c1NC(=O)C1CCCCN1C (stereo not drawn) [MEPIVACAINE]"
  AC50: "> 30 µM"
- molecule: "CN(CCCN1c2ccccc2CCc2ccccc21)CC(=O)c1ccc(Cl)cc1 [LOFEPRAMINE]"
  AC50: "> 30 µM"
- molecule: "CC(=O)OCC(=O)[C@@]1(O)CC[C@H]2[C@@H]3CCC4=CC(=O)CC[C@]4(C)[C@H]3C(=O)C[C@@]21C [CORTISONE ACETATE]"
  AC50: "> 30 µM"

Record lookup: for 5-hydroxytryptamine receptor 3A (Homo sapiens), what AC50 belongs to CC(C)Cc1ccc(CC(=O)O)cc1 [IBUFENAC] ?
> 30 µM

----------
Target: Progesterone receptor (Homo sapiens); further: assay procedure not described here
Sequence (P06401 whole entry): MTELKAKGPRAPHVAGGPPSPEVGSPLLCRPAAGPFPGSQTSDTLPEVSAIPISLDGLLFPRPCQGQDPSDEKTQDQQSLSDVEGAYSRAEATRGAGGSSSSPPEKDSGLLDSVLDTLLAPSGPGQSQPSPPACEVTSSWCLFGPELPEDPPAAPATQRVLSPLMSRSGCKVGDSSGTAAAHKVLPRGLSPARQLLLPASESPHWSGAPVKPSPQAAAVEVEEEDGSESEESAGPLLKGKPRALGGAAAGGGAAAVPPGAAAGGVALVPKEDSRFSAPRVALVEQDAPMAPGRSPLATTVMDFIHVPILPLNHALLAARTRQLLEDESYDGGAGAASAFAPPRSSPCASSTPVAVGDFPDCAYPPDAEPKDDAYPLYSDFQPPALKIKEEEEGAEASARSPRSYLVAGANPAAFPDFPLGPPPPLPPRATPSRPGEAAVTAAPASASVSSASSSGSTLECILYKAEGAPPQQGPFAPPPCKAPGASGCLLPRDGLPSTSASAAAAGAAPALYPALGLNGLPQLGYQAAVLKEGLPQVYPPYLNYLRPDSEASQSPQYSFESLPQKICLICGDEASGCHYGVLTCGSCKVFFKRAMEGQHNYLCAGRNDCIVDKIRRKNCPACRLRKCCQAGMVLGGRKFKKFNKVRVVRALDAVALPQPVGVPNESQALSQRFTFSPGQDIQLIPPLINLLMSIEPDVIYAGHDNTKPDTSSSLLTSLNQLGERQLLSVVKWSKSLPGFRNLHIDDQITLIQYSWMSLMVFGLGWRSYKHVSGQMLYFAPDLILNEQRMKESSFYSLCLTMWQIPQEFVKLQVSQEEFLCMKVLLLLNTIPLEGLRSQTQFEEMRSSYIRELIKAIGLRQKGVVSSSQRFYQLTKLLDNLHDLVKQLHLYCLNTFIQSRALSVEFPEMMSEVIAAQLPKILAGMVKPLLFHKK
Assay type: functional
Measured AC50 by item

// worked examples, AC50 included
- compound: "NC(=O)c1ncn([C@@H]2O[C@H](CO)[C@@H](O)[C@H]2O)c1O [MIZORIBINE]"
  obs.value: "> 30 µM"
- compound: "CO/N=C(\\C(=O)N[C@@H]1C(=O)N2C(C(=O)[O-])=C(C[N+]3(C)CCCC3)CS[C@H]12)c1csc(N)n1"
  obs.value: "> 300 µM"
- compound: "CCC1(C2=CCCCCC2)C(=O)NC(=O)NC1=O [HEPTABARBITAL]"
  obs.value: "> 10 µM"
- compound: "COc1ccccc1OCC(O)COC(N)=O (stereo unspecified) [METHOCARBAMOL]"
  obs.value: "> 30 µM"
- compound: "O=C(NC[C@H]1CN(c2ccc(N3CCOCC3=O)cc2)C(=O)O1)c1ccc(Cl)s1 [RIVAROXABAN]"
  obs.value: "> 30 µM"

For the compound `COC(=O)N[C@H](C(=O)N1CCC[C@H]1c1nc(-c2ccc(-c3ccc(-c4c[nH]c([C@@H]5CCCN5C(=O)[C@@H](NC(=O)OC)C(C)C)n4)cc3)cc2)c[nH]1)C(C)C` , what AC50 is on record?
> 30 µM

Consider the compound Cc1c(O)c(=O)ccn1C [DEFERIPRONE] and give its measured AC50.
> 30 µM

Any idea what AC50 was measured for CN[C@@H]1[C@H](O)[C@H](NC)[C@H]2O[C@@]3(O)C(=O)C[C@@H](C)O[C@H]3O[C@@H]2[C@H]1O [SPECTINOMYCIN] ?
> 10 µM

Param item = C#C[C@]1(O)CC[C@H]2[C@@H]3CCC4=CCCC[C@@H]4[C@H]3CC[C@@]21C [LYNESTRENOL] ; retrieve measured AC50.
5.2 µM

Reported AC50, compound NC[C@H]1O[C@H](O[C@H]2[C@H](O)[C@@H](O[C@H]3O[C@H](CO)[C@@H](O)[C@H](N)[C@H]3O)[C@H](N)C[C@@H]2N)[C@H](O)[C@@H](O)[C@@H]1O [KANAMYCIN] : ____
> 10 µM

----------
// reported AC50 for each item listed
Molecular target: Glucocorticoid receptor (Homo sapiens); further: assay procedure not described here
Sequence (P04150 whole entry): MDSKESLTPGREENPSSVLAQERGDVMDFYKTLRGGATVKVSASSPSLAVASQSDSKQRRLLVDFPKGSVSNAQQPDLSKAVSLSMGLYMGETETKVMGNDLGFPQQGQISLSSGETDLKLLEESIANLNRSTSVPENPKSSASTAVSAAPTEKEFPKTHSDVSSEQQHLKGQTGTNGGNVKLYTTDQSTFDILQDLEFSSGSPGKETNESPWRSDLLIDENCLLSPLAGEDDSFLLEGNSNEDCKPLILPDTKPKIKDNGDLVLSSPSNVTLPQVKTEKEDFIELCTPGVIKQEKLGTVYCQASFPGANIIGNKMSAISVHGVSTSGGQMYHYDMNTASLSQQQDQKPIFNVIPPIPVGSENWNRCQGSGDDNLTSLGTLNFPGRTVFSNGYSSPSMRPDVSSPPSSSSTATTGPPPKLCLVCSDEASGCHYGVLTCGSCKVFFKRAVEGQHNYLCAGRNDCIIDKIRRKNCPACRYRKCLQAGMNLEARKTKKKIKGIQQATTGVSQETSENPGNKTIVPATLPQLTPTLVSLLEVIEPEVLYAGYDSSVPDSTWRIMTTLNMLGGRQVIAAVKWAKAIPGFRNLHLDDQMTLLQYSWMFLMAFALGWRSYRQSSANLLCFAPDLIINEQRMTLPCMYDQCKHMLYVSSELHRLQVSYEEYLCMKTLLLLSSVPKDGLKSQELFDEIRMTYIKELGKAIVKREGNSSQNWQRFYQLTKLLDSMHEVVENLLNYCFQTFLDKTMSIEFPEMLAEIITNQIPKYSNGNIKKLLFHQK

- molecule: "C[C@H]1O[C@H](O[C@H]2[C@H](O)[C@@H](O)[C@@H](O[C@H]3[C@H](O)[C@@H](O)C(O)O[C@@H]3CO)O[C@@H]2CO)[C@H](O)[C@@H](O)[C@@H]1N[C@H]1C=C(CO)[C@@H](O)[C@H](O)[C@H]1O (stereo partly specified)"
  measured.target: "Glucocorticoid receptor (Homo sapiens)"
  AC50: "> 30 µM"
- molecule: "CNC(=O)c1cc(Oc2ccc(NC(=O)Nc3ccc(Cl)c(C(F)(F)F)c3)cc2)ccn1"
  measured.target: "Glucocorticoid receptor (Homo sapiens)"
  AC50: "> 30 µM"

Request the reported AC50 associated with CCNC(C)Cc1cccc(C(F)(F)F)c1 (stereo unspecified)
> 30 µM

So what does the record say about AC50 for `O=C(O)c1cc(-c2ccc(F)cc2F)ccc1O` ?
> 10 µM

Field request: AC50 | item: `CC[C@]1(O)C[C@@H]2CN(CCc3c([nH]c4ccccc34)[C@@](C(=O)OC)(c3cc4c(cc3OC)N(C)[C@H]3[C@@](O)(C(N)=O)[C@H](O)[C@]5(CC)C=CCN6CC[C@]43[C@@H]65)C2)C1`
> 30 µM

Query (molecule): `NC(N)=Nc1nc(CSCCC(N)=NS(N)(=O)=O)cs1` ; field requested: AC50
> 30 µM

----------
Target: 5-hydroxytryptamine receptor 1A (Homo sapiens); further: assay procedure not described here
Sequence (P08908 whole entry): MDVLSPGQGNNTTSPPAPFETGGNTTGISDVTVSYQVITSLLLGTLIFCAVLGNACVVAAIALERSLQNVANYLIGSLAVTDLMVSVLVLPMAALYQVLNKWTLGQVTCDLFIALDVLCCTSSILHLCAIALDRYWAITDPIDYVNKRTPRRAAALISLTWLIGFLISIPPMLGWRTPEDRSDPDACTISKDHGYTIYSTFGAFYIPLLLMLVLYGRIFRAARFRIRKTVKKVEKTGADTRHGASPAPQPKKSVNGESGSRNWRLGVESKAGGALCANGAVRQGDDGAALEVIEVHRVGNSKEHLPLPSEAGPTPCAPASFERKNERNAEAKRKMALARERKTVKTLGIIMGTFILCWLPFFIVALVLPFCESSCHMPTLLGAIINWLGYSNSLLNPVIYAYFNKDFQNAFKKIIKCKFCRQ
Type: functional, cell-based
observed.property: AC50

- compound: "NC(=O)c1cnccn1 [PYRAZINAMIDE]"
  AC50: "> 10 µM"
- compound: "C[C@]12CCC(=O)C=C1CC[C@@H]1[C@@H]2CC[C@@]2(C)[C@H]1CC[C@]2(C)O"
  AC50: "> 30 µM"
- compound: "CN(C)CCCN1c2ccccc2Sc2ccccc21"
  AC50: "> 10 µM"
- compound: "COc1ccccc1OCC(O)COC(N)=O (stereo unspecified)"
  AC50: "> 10 µM"

Form entry - test system: 5-hydroxytryptamine receptor 1A (Homo sapiens); read-out: AC50; compound: `CC1=CC(=O)c2ccccc2C1=O`; further: assay procedure not described here
> 10 µM

Look up AC50 with 5-hydroxytryptamine receptor 1A (Homo sapiens) for this compound: `CC(=O)N[C@H]1[C@H]([C@H](O)[C@H](O)CO)OC(C(=O)O)=C[C@@H]1N=C(N)N`
> 30 µM

----------
Target: Amine oxidase [flavin-containing] A (Homo sapiens); further: assay procedure not described here
Sequence (P21397 whole entry): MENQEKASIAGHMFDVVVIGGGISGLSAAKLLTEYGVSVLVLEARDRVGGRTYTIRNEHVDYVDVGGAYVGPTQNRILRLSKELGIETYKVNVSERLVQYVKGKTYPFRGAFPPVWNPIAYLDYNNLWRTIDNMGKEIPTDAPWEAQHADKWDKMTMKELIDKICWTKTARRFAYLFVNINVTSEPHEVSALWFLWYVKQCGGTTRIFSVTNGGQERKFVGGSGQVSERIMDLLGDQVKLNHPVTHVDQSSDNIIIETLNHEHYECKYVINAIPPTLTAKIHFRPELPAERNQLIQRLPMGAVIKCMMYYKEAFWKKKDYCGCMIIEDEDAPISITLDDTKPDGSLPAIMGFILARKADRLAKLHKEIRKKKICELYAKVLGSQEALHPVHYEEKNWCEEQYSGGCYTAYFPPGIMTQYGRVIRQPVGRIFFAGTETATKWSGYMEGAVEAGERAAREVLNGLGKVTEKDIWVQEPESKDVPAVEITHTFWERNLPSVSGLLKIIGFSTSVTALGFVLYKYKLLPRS
Format: functional
The following molecules are listed with their measured AC50 values.

Example entries and their recorded answers appear below.
- molecule: "CC[C@]1(O)C[C@@H]2CN(CCc3c([nH]c4ccccc34)[C@@](C(=O)OC)(c3cc4c(cc3OC)N(C)[C@H]3[C@@](O)(C(N)=O)[C@H](O)[C@]5(CC)C=CCN6CC[C@]43[C@@H]65)C2)C1"
  measured.target: "Amine oxidase [flavin-containing] A (Homo sapiens)"
  AC50: "> 30 µM"
- molecule: "C#C[C@]1(O)CC[C@H]2[C@@H]3CCC4=CCCC[C@@H]4[C@H]3CC[C@@]21C"
  measured.target: "Amine oxidase [flavin-containing] A (Homo sapiens)"
  AC50: "0.3 µM"
- molecule: "COCC1=C(C(=O)OC(C)OC(=O)OC(C)C)N2C(=O)[C@@H](NC(=O)/C(=N\\OC)c3csc(N)n3)[C@H]2SC1 (stereo partly drawn)"
  measured.target: "Amine oxidase [flavin-containing] A (Homo sapiens)"
  AC50: "> 30 µM"
- molecule: "CCCCCN(C)CCC(O)(P(=O)(O)O)P(=O)(O)O"
  measured.target: "Amine oxidase [flavin-containing] A (Homo sapiens)"
  AC50: "> 30 µM"

Which value of AC50 has been reported for `COc1ccc2cccc(CCNC(C)=O)c2c1` in the records?
> 10 µM

# get_value(readout='AC50', item= COC(=O)C1=C(C)NC(C)=C(C(=O)OC(C)C)C1c1cccc2nonc12 (stereo not drawn) )
> 30 µM

Item under review: `CCc1nn(CCCN2CCN(c3cccc(Cl)c3)CC2)c(=O)n1CCOc1ccccc1` . Reported AC50?
> 10 µM

What does the record list as AC50 for `CN1CCc2cccc3c2[C@H]1Cc1ccc(O)c(O)c1-3` ?
> 10 µM
